Reported IC50 by item:
target: biotinylated truncated STAT6 (123-632)-avi (Homo sapiens); construct: 0.15 nM biotinylated truncated STAT6 (123-632)-avi purified from E. coli; made in house; host or cells: E. coli; assay: STAT6 HTRF binding assay; conditions: 0.15 nM STAT6 (123-632)-avi, 20 nM fluorescein-labeled probe, 30 minutes at room temperature
Sequence (P42226 123-632 limits assumed): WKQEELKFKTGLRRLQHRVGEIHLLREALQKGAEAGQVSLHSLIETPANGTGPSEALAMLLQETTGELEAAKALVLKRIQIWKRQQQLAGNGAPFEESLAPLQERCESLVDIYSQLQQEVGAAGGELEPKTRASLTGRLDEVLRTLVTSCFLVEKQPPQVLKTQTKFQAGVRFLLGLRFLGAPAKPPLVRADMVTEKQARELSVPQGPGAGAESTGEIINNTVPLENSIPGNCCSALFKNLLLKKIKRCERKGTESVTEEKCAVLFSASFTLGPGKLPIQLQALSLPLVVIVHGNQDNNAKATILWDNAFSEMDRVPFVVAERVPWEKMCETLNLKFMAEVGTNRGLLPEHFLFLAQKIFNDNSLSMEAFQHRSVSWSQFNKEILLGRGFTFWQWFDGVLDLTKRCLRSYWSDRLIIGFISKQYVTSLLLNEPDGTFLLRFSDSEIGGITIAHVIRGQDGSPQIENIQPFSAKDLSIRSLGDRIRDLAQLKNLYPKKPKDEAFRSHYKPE

Here are 2 compounds together with their reported answers.
{"compound": "COc1cc(N2CCN(CCc3cccc4c3n(C)c(=O)n4C3CCC(=O)NC3=O)CC2)ccc1-c1cc(C(=O)N(C)C)ccc1C1=CCCN(C(=O)CCn2ccnn2)C1 (stereo not drawn)", "IC50": "0.1 to 1 µM"}
{"compound": "COc1cc(N2CCN(CCc3cccc4c3n(C)c(=O)n4C3CCC(=O)NC3=O)CC2)ccc1-c1cc(C2=CCCN(C(=O)CCn3ccnn3)C2)cnc1CNC(=O)N(C)C (stereo not drawn)", "IC50": "1 to 10 µM"}

# evaluate next
Query string: Recall and state the measured IC50 for COc1cc(N2CCN(CCc3cccc4c3n(C)c(=O)n4C3CCC(=O)NC3=O)CC2)ccc1-c1cc(C2=CCCN(C(=O)CCn3ccnn3)C2)c(F)c2ccncc12 (stereo not drawn) .
Result string: 1 to 10 µM
